- Tested on: Staphylococcus aureus
- PROCEDURE_TEXT: Antimicrobial activity against methicillin-resistant Staphylococcus aureus isolate 12-8 after 18 hrs by agar dilution assay
- Type: functional
- TEST_SETTINGS: isolate 12-8, 18 h
READOUT: MIC (µg/mL)
Express your answer in µg/mL, writing the number without its unit.

# compound `COc1ccc2c(c[n+]3c4c2ccc2c5c(cc(c24)CC3)OCO5)c1OCC(=O)c1ccccc1OC(F)(F)F.[Br-]` ; its MIC = 8

Query `COc1ccc2c(c[n+]3c4c2ccc2c5c(cc(c24)CC3)OCO5)c1OCC(=O)c1ccc(F)cc1.[Br-]` yields MIC of 8

Record `COc1ccc2c(c[n+]3c4c2ccc2c5c(cc(c24)CC3)OCO5)c1OC(C)=O.[Cl-]` . Reported MIC: 8
